Tested on: Mus musculus
measurementProtocol: Toxicity against BALB/c Mus musculus (mouse) assessed as blood urea level at 10 mg/kg, ip administered 2 times per week for 30 days (reference value: 29 +/- 6 mg/dl)
Format: organism-based
Design: dose 10 mg/kg, route intraperitoneal
experimentalSetup: in vivo, 720 h
Returns yes (1) if the recorded Activity is greater than or equal to 30 mg/dL, and no (0) otherwise.

Ask | Does the reported Activity for `O=C1CN(c2ccccc2)C(=O)CN1c1ccccc1` fall at or above the 30 mg/dL mark?
Reply | yes (1)

* * *

Listed here are compounds together with their documented Activity.
Tested on: Mus musculus
measurementProtocol: Toxicity against BALB/c Mus musculus (mouse) assessed as blood urea level at 10 mg/kg, ip administered 2 times per week for 30 days (reference value: 29 +/- 6 mg/dl)
Format: organism-based
Design: dose 10 mg/kg, route intraperitoneal
experimentalSetup: in vivo, 720 h
The answer is to be given in mg/dL; state only the numeric part.

| smi | Activity (mg/dL) |
| --- | --- |
| O=C1CN(c2cccc(Cl)c2)C(=O)CN1c1cccc(Cl)c1 | 29 |
| O=C1CN(C2CCCCC2)C(=O)CN1C1CCCCC1 | 31 |
| Cc1ccc(N2CC(=O)N(c3ccc(C)cc3)CC2=O)cc1 | 34 |

Field: next compound
Ask | Tell me measured Activity for `O=C1CN(c2ccccc2Cl)C(=O)CN1c1ccccc1Cl` please.
Reply | 30
